Tested on: SARS-COV-2
Assay: microbe, parasite or virus in culture
Format: cell-based
Settings: Severe acute respiratory syndrome coronavirus 2; Vero cells, 24 hours infection; read-out: SARS-COV-2 inhibition (IC50)
MEASURED PROPERTY: log10(IC50) (log10 of the value in nM)
Hello, just confirming the data are log10 of IC50 with units of nM.

// below: answered compounds
{"COMPOUND": "COc1cc2cc3c(c(-c4ccc(N(C)c5ccccc5)nc4)c2cc1OC)C(=O)OC3", "MEASURED PROPERTY": "log10(IC50)", "TEST RESULT": 2.49}
{"COMPOUND": "COc1cc2cc3c(c(-c4ccc(N(C)Cc5cccs5)nc4)c2cc1OC)C(=O)OC3", "MEASURED PROPERTY": "log10(IC50)", "TEST RESULT": 3.01}
{"COMPOUND": "COc1cc2cc3c(c(-c4ccc(N5CCC6(CC5)OCCO6)nc4)c2cc1OC)C(=O)OC3", "MEASURED PROPERTY": "log10(IC50)", "TEST RESULT": 3.43}

# query: log10(IC50) of entry `COc1cc2cc3c(c(-c4ccc(N(C)C5CC5)nc4)c2cc1OC)C(=O)OC3`
1.78

Same question, `COCCN(C)c1ncc(-c2c3c(cc4cc(OC)c(OC)cc24)COC3=O)cn1` this time
2.70

* * *

Tested on: SARS-COV-2
Assay: microbe, parasite or virus in culture
Format: cell-based
Parameters: unit not given here
Conditions: SARS-COV-2; values >50 assumed to be 50
Entries and their SI (Selectivity Index, CC50/IC50)
Just the number, please.

# annotated cases, reported SI (Selectivity Index, CC50/IC50) shown
{"MOLECULE": "COc1cc2cc3c(c(-c4cnc(N[C@H]5CC[C@H](O)CC5)nc4)c2cc1OC)C(=O)OC3", "MEASURED PROPERTY": "SI (Selectivity Index, CC50/IC50)", "TEST RESULT": 1.00}
{"MOLECULE": "COc1cc2cc3c(c(-c4cnc5ccccc5c4)c2cc1OC)C(=O)OC3", "MEASURED PROPERTY": "SI (Selectivity Index, CC50/IC50)", "TEST RESULT": 512.00}
{"MOLECULE": "COc1cc2cc3c(c(-c4ccc(N5CCCC(c6cccc(C)c6)C5)nc4)c2cc1OC)C(=O)OC3 (centres unmarked)", "MEASURED PROPERTY": "SI (Selectivity Index, CC50/IC50)", "TEST RESULT": 38.01}
{"MOLECULE": "COc1cc2cc3c(c(-c4ccc(N5CCc6ccccc6C5)nc4)c2cc1OC)C(=O)OC3.Cl", "MEASURED PROPERTY": "SI (Selectivity Index, CC50/IC50)", "TEST RESULT": 72.26}
{"MOLECULE": "CCN(Cc1cccs1)c1ccc(-c2c3c(cc4cc(OC)c(OC)cc24)COC3=O)cn1", "MEASURED PROPERTY": "SI (Selectivity Index, CC50/IC50)", "TEST RESULT": 25.20}
{"MOLECULE": "COc1cc2cc3c(c(-c4ccc(N(C)c5nc6ccccc6s5)nc4)c2cc1OC)C(=O)OC3.Cl", "MEASURED PROPERTY": "SI (Selectivity Index, CC50/IC50)", "TEST RESULT": 0.65}
{"MOLECULE": "COc1cc2cc3c(c(-c4ccc(N(C)Cc5ccc(C)o5)nc4)c2cc1OC)C(=O)OC3", "MEASURED PROPERTY": "SI (Selectivity Index, CC50/IC50)", "TEST RESULT": 49.02}

# returns recorded SI (Selectivity Index, CC50/IC50) (system: SARS-COV-2) for `COc1cc2cc3c(c(-c4ccc(F)nc4)c2cc1OC)C(=O)OC3`
1.00

* * *

Test system: SARS-COV-2
Test: microbe, parasite or virus in culture
Assay type: cell-based
Details: Severe acute respiratory syndrome coronavirus 2; Vero cells, 24 hours infection; read-out: SARS-COV-2 inhibition (IC50)
MEASURED PROPERTY: IC50

Below, each entry is followed by its recorded IC50 result.
{"SMILES REPRESENTATION": "COc1cc2cc3c(c(-c4ccc5cc(C(F)(F)F)cc(O)c5c4)c2cc1OC)C(=O)OC3", "IC50": "> 50 µM"}
{"SMILES REPRESENTATION": "COCCN(C)c1c2c(cc3cc(OC)c(OC)cc13)COC2=O", "IC50": "> 50 µM"}

Query molecule follows.
# query: IC50 | item `COc1cc2cc3c(c(-c4ccnc5c(OC)cccc45)c2cc1OC)C(=O)OC3` | system: SARS-COV-2
> 50 µM

* * *

Tested on: SARS-COV-2
Test: microbe, parasite or virus in culture
Format: cell-based
Details: Severe acute respiratory syndrome coronavirus 2; Vero cells, 24 hours infection; read-out: SARS-COV-2 inhibition (IC50)
MEASURED PROPERTY: IC50

{"COMPOUND": "COc1cc2cc3c(c(-c4ccnc5ccc(F)cc45)c2cc1OC)C(=O)OC3 [Example 148]", "TEST RESULT": "> 50 µM"}

Proceeding to the next compound to report its IC50.
Value lookup for IC50; key = COc1cc2cc3c(c(-c4cccc(N5CCOCC5)c4)c2cc1OC)C(=O)OC3 [Example 244]
> 50 µM

* * *

Test system: SARS-COV-2
Assay: microbe, parasite or virus in culture
Type: cell-based
Conditions: Severe acute respiratory syndrome coronavirus 2; Vero cells, 24 hours infection; read-out: SARS-COV-2 inhibition (IC50)
MEASURED PROPERTY: IC50 (µM)
The reply should be a number in µM, with the unit left off.

Recorded results for 5 compounds are shown here.
{"SMILES REPRESENTATION": "COc1cc2cc3c(c(-c4ccc(N(C)CCC5OCCO5)nc4)c2cc1OC)C(=O)OC3", "TARGET ENTITY": "SARS-COV-2", "IC50, µM": 6.46}
{"SMILES REPRESENTATION": "COc1cc2cc3c(c(-c4ccc(N5CCCC5)cc4)c2cc1OC)C(=O)OC3", "TARGET ENTITY": "SARS-COV-2", "IC50, µM": 0.42}
{"SMILES REPRESENTATION": "COc1cc2cc3c(c(-c4ccc(N(C)C5Cc6ccccc6C5)nc4)c2cc1OC)C(=O)OC3", "TARGET ENTITY": "SARS-COV-2", "IC50, µM": 1.49}
{"SMILES REPRESENTATION": "COc1cc2cc3c(c(-c4ccc5c(c4)N(C)CCC5)c2cc1OC)C(=O)OC3", "TARGET ENTITY": "SARS-COV-2", "IC50, µM": 2.06}
{"SMILES REPRESENTATION": "COc1cc2cc3c(c(-c4ccc5nc(C)ccc5c4)c2cc1OC)C(=O)OC3", "TARGET ENTITY": "SARS-COV-2", "IC50, µM": 1.14}

Any idea what IC50 came out for `COc1cc2cc3c(c(-c4cnc5ccccc5c4)c2cc1OC)C(=O)OC3` on SARS-COV-2?
0.1

Proceed to `COc1cc2cc3c(c(-c4ccc(Cl)nc4)c2cc1OC)C(=O)OC3`
0.33

Same thing, different compound: `CCN(CCc1cn(CC)c2ccccc12)c1ccc(-c2c3c(cc4cc(OC)c(OC)cc24)COC3=O)cn1`
17.4

Note, next up: `COc1cc2cc3c(c(-c4ccc(N5CCOCC5)nc4)c2cc1OC)C(=O)OC3`
0.28

Please give the result for `COc1cc2cc3c(c(-c4ccc(N5CCC(F)(F)CC5)nc4)c2cc1OC)C(=O)OC3` too.
0.17

Now this one: `COc1cc2cc3c(c(-c4cnc(N5CCC[C@@H]5CN5CCCC5)nc4)c2cc1OC)C(=O)OC3`
8.66

Let us now turn to `CNc1ccc(-c2c3c(cc4cc(OC)c(OC)cc24)COC3=O)cc1`
3.29

Next record, please: `COc1cc2cc3c(c(-c4cnc(N(C)C)cn4)c2cc1OC)C(=O)OC3`
4.22

* * *

Test system: SARS-COV-2
Experiment: microbe, parasite or virus in culture
Type: cell-based
Details: Severe acute respiratory syndrome coronavirus 2; Vero cells, 24 hours infection; read-out: SARS-COV-2 inhibition (IC50)
pIC50: −log10 of the molar value.
Decide using pIC50: a value greater than or equal to 5 is condition met, a smaller one is condition not met.

Solved cases below.
{"COMPOUND": "COc1cc2cc3c(c(-c4cnc(/N=C\\CN(C)C)cn4)c2cc1OC)C(=O)OC3", "TARGET ENTITY": "SARS-COV-2", "DISCRETE LABEL": "condition not met"}
{"COMPOUND": "COc1cc2cc3c(c(-c4cccc5cccnc45)c2cc1OC)C(=O)OC3", "TARGET ENTITY": "SARS-COV-2", "DISCRETE LABEL": "condition not met"}
{"COMPOUND": "COc1cc2cc3c(c(-c4cnc(NC5CC5)nc4)c2cc1OC)C(=O)OC3", "TARGET ENTITY": "SARS-COV-2", "DISCRETE LABEL": "condition not met"}
{"COMPOUND": "COc1cc2cc3c(c(-c4cccc5ncccc45)c2cc1OC)C(=O)OC3", "TARGET ENTITY": "SARS-COV-2", "DISCRETE LABEL": "condition not met"}

Item `COc1cc2cc3c(c(-c4cnc(N[C@H]5CC[C@H](O)CC5)nc4)c2cc1OC)C(=O)OC3` with pIC50 of 5 or above?
condition not met

And COc1cc2cc3c(c(-c4cnc(N5CCCC(C(=O)O)C5)nc4)c2cc1OC)C(=O)OC3 (stereo not drawn) ?
condition not met

Ok, now `COc1cc2c(OC)c3c(c(-c4ccc(-n5cc(C#N)c(N(C)C)n5)nc4)c2cc1OC)COC3=O`
condition not met

Another compound to look at: `COc1cc2cc(CO)c(C(=O)Cl)c(-c3cc4c(cc3O)OCO4)c2cc1OC`
condition met

Another compound to check: `COc1cc2cc3c(c(-c4ccc(N5CCn6c(nnc6C(F)(F)F)C5)nc4)c2cc1OC)C(=O)OC3`
condition not met

Field entry: `CCN(c1ccc(-c2c3c(cc4cc(OC)c(OC)cc24)COC3=O)cn1)C(C)C`
condition met

What do you get for `COc1cc2cc3c(c(-c4cnc(N5CCC[C@H]5C(=O)O)nc4)c2cc1OC)C(=O)OC3` ?
condition not met

Thanks! And COc1cc2cc3c(c(-c4ccc(N5CCCC(C)C5)nc4)c2cc1OC)C(=O)OC3 (stereo not drawn) ?
condition met

Request: `COc1cc2cc3c(c(-c4ccc(N5CCCCC5)cc4)c2cc1OC)C(=O)OC3`
condition met

Record: `CCNc1ccc(-c2c3c(cc4cc(OC)c(OC)cc24)COC3=O)cc1`
condition met

Entry to check: `COc1cc2cc3c(c(-c4ccc(N5C[C@@H](C)O[C@@H](C)C5)nc4)c2cc1OC)C(=O)OC3`
condition met

Please give the result for `COc1cc2cc3c(c(-c4cnc(N(C)CC(OC)OC)nc4)c2cc1OC)C(=O)OC3` too.
condition met

Try this compound next: `COc1cc2cc3c(c(-c4cccc(N5CCCCC5)c4)c2cc1OC)C(=O)OC3`
condition not met

Try the compound `CCN(Cc1cccs1)c1ccc(-c2c3c(cc4cc(OC)c(OC)cc24)COC3=O)cn1`
condition met

Note, next up: `COc1cc2cc3c(c(N4CCN(c5ncc(Br)cn5)CC4)c2cc1OC)C(=O)OC3`
condition not met

Thanks! And `COc1cc2c(OC)c3c(c(-c4ccc(N5CCOCC5)nc4)c2cc1OC)COC3=O` ?
condition not met
